- testedSystem: recombinant human c-Met/HGF receptor (Homo sapiens, UniProt P08581)
- Construct: His tag
- Sequence (P08581 1078-1337): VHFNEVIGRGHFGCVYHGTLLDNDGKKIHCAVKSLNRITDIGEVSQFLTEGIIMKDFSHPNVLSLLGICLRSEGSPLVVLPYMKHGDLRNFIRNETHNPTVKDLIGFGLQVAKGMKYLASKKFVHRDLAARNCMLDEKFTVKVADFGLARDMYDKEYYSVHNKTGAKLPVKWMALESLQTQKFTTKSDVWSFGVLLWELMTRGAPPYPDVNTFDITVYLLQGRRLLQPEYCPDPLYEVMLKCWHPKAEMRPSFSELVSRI
- test: In vitro receptor tyrosine kinase assay, c-Met (DELFIA)
- assayContext: ATP 10 uM, enzyme 25 nM; read-out: Potency in enzyme assays Cmet
pIC50: −log10 of the molar value.
Listing: pIC50 of selected molecules

The cases that follow already have their pIC50 on record.
// query Lookup: pIC50 / recombinant human c-Met/HGF receptor (Homo sapiens, UniProt P08581) / O=C(Nc1ccc(Oc2ccncc2)c(F)c1)N1CCN(c2cccc(C(F)(F)F)c2)C1=O [Compound 21c]
// result ≤ 6.00

// query Same lookup for CN(C)[C@@H]1CCN(C(=O)Nc2cc(Oc3ccc(NC(=O)N4CCN(c5ccccc5)C4=O)cc3F)ccn2)C1 [Compound 18e] , please.
// result > 6.60

// query Same lookup for O=C(Nc1ccc(Oc2ccncc2)c(F)c1)N1CCN(c2ccccc2Cl)C1=O [Compound 21h] , please.
// result 6.00 to 6.30

As a next step, examine the molecule that follows.
// query Lookup: pIC50 / recombinant human c-Met/HGF receptor (Homo sapiens, UniProt P08581) / CN(C)[C@H]1CCN(C(=O)Nc2cc(Oc3ccc(NC(=O)N4CCN(c5ccccc5)C4=O)cc3F)ccn2)C1 [Compound 18f]
// result > 6.60
